test_target: SMARCA2 (Homo sapiens, UniProt P51531)
Sequence (P51531 whole entry): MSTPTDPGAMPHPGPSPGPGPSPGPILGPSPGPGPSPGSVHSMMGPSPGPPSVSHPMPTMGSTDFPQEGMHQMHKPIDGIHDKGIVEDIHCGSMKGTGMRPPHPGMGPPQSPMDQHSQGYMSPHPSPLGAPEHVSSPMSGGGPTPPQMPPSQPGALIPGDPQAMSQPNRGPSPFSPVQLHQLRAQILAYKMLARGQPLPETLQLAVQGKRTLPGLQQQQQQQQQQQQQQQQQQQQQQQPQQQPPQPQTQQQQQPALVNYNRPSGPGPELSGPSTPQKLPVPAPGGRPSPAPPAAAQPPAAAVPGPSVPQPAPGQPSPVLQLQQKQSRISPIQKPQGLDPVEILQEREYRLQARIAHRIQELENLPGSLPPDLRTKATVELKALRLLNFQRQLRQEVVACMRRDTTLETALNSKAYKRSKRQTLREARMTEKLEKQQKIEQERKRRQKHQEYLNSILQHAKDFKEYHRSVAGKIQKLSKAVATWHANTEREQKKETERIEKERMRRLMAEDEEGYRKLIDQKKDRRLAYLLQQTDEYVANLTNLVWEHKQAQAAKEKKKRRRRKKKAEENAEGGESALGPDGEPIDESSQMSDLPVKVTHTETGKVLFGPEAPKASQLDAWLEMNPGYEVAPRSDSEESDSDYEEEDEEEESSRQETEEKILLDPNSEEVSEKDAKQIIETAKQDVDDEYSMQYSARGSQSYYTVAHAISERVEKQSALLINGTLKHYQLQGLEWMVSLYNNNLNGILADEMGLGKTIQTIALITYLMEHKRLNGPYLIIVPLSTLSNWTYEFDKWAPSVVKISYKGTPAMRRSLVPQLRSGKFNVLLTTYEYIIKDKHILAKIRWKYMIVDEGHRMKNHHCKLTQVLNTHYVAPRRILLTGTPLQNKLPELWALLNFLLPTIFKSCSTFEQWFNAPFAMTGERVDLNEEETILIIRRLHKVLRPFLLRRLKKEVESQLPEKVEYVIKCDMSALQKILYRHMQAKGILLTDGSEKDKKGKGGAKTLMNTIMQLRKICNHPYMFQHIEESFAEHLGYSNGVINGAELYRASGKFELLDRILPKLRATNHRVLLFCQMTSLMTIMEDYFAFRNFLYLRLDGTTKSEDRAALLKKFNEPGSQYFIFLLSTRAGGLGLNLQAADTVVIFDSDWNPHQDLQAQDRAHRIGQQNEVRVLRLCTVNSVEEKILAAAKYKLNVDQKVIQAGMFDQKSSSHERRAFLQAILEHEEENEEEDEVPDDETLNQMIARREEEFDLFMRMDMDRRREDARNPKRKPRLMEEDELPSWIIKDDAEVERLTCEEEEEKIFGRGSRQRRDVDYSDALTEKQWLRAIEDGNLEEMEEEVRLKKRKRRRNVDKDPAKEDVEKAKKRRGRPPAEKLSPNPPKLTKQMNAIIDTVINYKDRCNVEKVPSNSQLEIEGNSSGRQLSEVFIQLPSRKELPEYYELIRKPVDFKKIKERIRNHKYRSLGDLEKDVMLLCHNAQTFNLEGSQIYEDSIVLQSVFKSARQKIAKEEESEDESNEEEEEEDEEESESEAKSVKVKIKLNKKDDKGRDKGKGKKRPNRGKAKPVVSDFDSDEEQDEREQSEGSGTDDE
test: MSD SMARCA2 degradation in A549 cell line
Format: cell-based
test_context: A549, A549 cells, 24 h
# Lookup of reported Dmax keyed by entry

{"compound": "Cn1c(=O)n(C2CCC(=O)NC2=O)c2ccc([C@H]3CC[C@@H](N4CCC(c5nccc(N6C7CCC6CN(c6cc(-c8ccccc8O)nnc6N)C7)n5)CC4)CC3)cc21 (some centres unmarked)", "test_target": "SMARCA2 (Homo sapiens, UniProt P51531)", "Dmax": "> 90%"}
{"compound": "Cc1ncsc1-c1ccc(CNC(=O)[C@@H]2C[C@@H](O)CN2C(=O)[C@@H](NC(=O)CCCCN2CCC[C@H](Cn3cc(-c4cc(-c5ccccc5O)nnc4N)cn3)C2)C(C)(C)C)cc1", "test_target": "SMARCA2 (Homo sapiens, UniProt P51531)", "Dmax": "< 50%"}
{"compound": "Cc1ncsc1-c1ccc(CNC(=O)[C@@H]2C[C@@H](O)CN2C(=O)[C@@H](NC(=O)CCCCN2CCC(CN3CCC(Cn4cc(-c5cc(-c6ccccc6O)nnc5N)cn4)CC3)CC2)C(C)(C)C)cc1", "test_target": "SMARCA2 (Homo sapiens, UniProt P51531)", "Dmax": "< 50%"}
{"compound": "Cc1ncsc1-c1ccc(CNC(=O)[C@@H]2C[C@@H](O)CN2C(=O)[C@@H](NC(=O)[C@H]2CC[C@H](CCCN3CCC(n4cc(-c5cc(-c6ccccc6O)nnc5N)cn4)CC3)CC2)C(C)(C)C)cc1", "test_target": "SMARCA2 (Homo sapiens, UniProt P51531)", "Dmax": "> 90%"}

Consider the record given below.
Briefly, Dmax measured for Nc1nnc(-c2ccccc2O)cc1N1CC2CCC(C1)N2c1ncc(C2CCN(CCCCCCCCCCOc3ccc(Oc4ccc(N(Cc5ccccc5)C(=O)CCl)cc4)cc3)CC2)cn1 : < 50%

---

test_target: SMARCA4 (Homo sapiens)
Construct: SMARCA2 and SMARCA4 protein degradation in MV4-11 cells; endogenous in cells; host or cells: MV4-11
Sequence (P51532 whole entry): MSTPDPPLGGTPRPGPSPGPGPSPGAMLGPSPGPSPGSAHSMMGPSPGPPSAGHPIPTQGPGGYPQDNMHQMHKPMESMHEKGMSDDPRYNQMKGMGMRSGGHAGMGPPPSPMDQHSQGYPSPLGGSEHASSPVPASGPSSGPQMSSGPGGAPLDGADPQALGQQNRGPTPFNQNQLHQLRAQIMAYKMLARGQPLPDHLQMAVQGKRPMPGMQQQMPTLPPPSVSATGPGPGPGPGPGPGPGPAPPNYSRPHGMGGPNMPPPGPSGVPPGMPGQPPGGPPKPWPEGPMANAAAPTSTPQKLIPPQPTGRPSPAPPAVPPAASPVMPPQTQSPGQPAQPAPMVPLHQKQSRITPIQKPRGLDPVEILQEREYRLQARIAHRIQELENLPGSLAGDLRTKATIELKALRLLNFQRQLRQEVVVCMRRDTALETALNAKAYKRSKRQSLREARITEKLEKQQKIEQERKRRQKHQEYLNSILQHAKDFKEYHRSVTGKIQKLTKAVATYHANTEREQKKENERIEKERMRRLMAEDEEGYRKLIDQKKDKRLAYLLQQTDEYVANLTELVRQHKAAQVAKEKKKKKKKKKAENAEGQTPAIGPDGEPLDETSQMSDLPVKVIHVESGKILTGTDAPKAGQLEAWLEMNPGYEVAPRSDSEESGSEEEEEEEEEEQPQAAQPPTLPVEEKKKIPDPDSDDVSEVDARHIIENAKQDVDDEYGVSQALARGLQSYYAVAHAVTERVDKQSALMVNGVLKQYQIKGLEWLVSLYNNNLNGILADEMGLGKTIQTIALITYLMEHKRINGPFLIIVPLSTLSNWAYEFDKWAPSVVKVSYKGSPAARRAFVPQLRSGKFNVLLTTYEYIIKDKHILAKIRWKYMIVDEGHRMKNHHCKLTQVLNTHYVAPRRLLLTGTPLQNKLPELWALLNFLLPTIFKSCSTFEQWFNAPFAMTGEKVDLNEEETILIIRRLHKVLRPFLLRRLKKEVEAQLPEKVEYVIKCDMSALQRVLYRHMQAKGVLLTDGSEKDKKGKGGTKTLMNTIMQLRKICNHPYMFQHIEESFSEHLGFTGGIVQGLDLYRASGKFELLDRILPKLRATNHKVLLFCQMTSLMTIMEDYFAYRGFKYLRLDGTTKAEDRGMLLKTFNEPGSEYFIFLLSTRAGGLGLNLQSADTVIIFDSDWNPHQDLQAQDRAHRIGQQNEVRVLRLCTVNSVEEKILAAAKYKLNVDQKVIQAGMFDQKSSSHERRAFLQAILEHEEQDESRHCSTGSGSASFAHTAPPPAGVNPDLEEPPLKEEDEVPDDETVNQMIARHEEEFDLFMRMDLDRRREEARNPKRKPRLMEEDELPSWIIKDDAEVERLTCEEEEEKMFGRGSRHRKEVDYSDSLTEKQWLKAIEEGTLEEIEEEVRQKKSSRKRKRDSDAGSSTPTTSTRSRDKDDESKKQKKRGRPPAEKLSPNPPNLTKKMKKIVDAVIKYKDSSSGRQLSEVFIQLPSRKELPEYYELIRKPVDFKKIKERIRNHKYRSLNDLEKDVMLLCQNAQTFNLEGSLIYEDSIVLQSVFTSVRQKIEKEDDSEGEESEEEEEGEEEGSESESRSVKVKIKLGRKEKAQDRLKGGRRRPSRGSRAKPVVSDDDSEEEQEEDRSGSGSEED
test: SMARCA4 Western blot MV4-11 degradation
Format: cell-based
test_context: MV4-11, MV4-11 cells, 24 h, read-out: SMARCA4 WB MV411 degradation 24 h: Average Dmax %
# Lookup of reported Dmax keyed by entry

Solved cases below.
{"molecule": "Cc1ncsc1-c1ccc(CNC(=O)[C@@H]2C[C@@H](O)CN2C(=O)[C@@H](NC(=O)CCCC#Cc2cnc(N3C4CCC3CN(c3cc(-c5ccccc5O)nnc3N)C4)nc2)C(C)(C)C)cc1 [I-341]", "Dmax": "> 90%"}
{"molecule": "Cc1ncsc1-c1ccc(CNC(=O)[C@@H]2C[C@@H](O)CN2C(=O)[C@@H](NC(=O)CCCCN2CCC[C@H](Cn3cc(-c4cc(-c5ccccc5O)nnc4N)cn3)C2)C(C)(C)C)cc1 [I-480]", "Dmax": "< 50%"}
{"molecule": "COc1ccccc1-c1cc(N2CC3CCC(C2)N3c2ncc(C3CCN(CCCc4ccc5c(c4)n(C)c(=O)n5C4CCC(=O)NC4=O)CC3)cn2)c(N)nn1 (stereo not shown) [I-326]", "Dmax": "50 to 70%"}
{"molecule": "Cc1ncsc1-c1ccc(CNC(=O)[C@@H]2C[C@@H](O)CN2C(=O)[C@@H](NC(=O)N[C@H]2CC[C@@H](c3cnc(N4C5CCC4CN(c4cc(-c6ccccc6O)nnc4N)C5)nc3)CC2)C(C)(C)C)cc1 [I-334]", "Dmax": "> 90%"}

Field Dmax (system: SMARCA4 (Homo sapiens)) for entry Cc1ncsc1-c1ccc(CNC(=O)[C@@H]2C[C@@H](O)CN2C(=O)[C@@H](NC(=O)[C@H]2CC[C@H](CN(C)Cc3cnc(N4C5CCC4CN(c4cc(-c6ccccc6O)nnc4N)C5)nc3)CC2)C(C)(C)C)cc1 [I-486] = 50 to 70%

Field Dmax (system: SMARCA4 (Homo sapiens)) for entry Cc1ncsc1-c1ccc(CNC(=O)[C@@H]2C[C@@H](O)CN2C(=O)[C@@H](NC(=O)CN2CCC(n3cc(-c4cc(-c5ccccc5O)nnc4N)cn3)CC2)C(C)(C)C)cc1 [I-457] = 70 to 90%

Field Dmax (system: SMARCA4 (Homo sapiens)) for entry Cc1ncsc1-c1ccc(CNC(=O)[C@@H]2C[C@@H](O)CN2C(=O)[C@@H](NC(=O)c2ccc(-c3ccc(CN4CCC(Cn5cc(-c6cc(-c7ccccc7O)nnc6N)cn5)CC4)cc3)cc2)C(C)(C)C)cc1 [I-507] = > 90%

Field Dmax (system: SMARCA4 (Homo sapiens)) for entry Cc1ncsc1-c1ccc(CNC(=O)[C@@H]2C[C@@H](O)CN2C(=O)[C@@H](NC(=O)[C@H]2CC[C@H](Cc3cnc(N4C5CCC4CN(c4cc(-c6ccccc6O)nnc4N)C5)nc3)CC2)C(C)(C)C)cc1 [I-366] = > 90%

Field Dmax (system: SMARCA4 (Homo sapiens)) for entry Cc1ncsc1-c1ccc(CNC(=O)[C@@H]2C[C@@H](O)CN2C(=O)[C@@H](NC(=O)c2ccc(C#CCCCN3CCC(Cn4cc(-c5cc(-c6ccccc6O)nnc5N)cn4)CC3)cc2)C(C)(C)C)cc1 [I-506] = > 90%

Field Dmax (system: SMARCA4 (Homo sapiens)) for entry Cc1ncsc1-c1ccc(CNC(=O)[C@@H]2C[C@@H](O)CN2C(=O)[C@@H](NC(=O)[C@H]2C[C@H](N3CCC(n4cc(-c5cc(-c6ccccc6O)nnc5N)cn4)CC3)C2)C(C)(C)C)cc1 [I-359] = < 50%

Field Dmax (system: SMARCA4 (Homo sapiens)) for entry Cc1ncsc1-c1ccc(CNC(=O)[C@@H]2C[C@@H](O)CN2C(=O)[C@@H](NC(=O)C23CCC(CN4CCC(n5cc(-c6cc(-c7ccccc7O)nnc6N)cn5)CC4)(CC2)CC3)C(C)(C)C)cc1 [I-428] = 70 to 90%

Field Dmax (system: SMARCA4 (Homo sapiens)) for entry Cc1ncsc1-c1ccc(CNC(=O)[C@@H]2C[C@@H](O)CN2C(=O)[C@@H](NC(=O)CCCCCN2CCC(n3cc(-c4cc(-c5ccccc5O)nnc4N)cn3)CC2)C(C)(C)C)cc1 [I-461] = 50 to 70%

Field Dmax (system: SMARCA4 (Homo sapiens)) for entry Cc1ncsc1-c1ccc(CNC(=O)[C@@H]2C[C@@H](O)CN2C(=O)[C@@H](NC(=O)[C@H]2C[C@@H](N3CCC(c4cnc(N5C6CCC5CN(c5cc(-c7ccccc7O)nnc5N)C6)nc4)CC3)C2)C(C)(C)C)cc1 [I-349] = < 50%

Field Dmax (system: SMARCA4 (Homo sapiens)) for entry Cc1ncsc1-c1ccc(CNC(=O)[C@@H]2C[C@@H](O)CN2C(=O)[C@@H](NC(=O)[C@H]2C[C@H](N3CCC(c4cnc(N5C6CCC5CN(c5cc(-c7ccccc7O)nnc5N)C6)nc4)CC3)C2)C(C)(C)C)cc1 [I-356] = > 90%

Field Dmax (system: SMARCA4 (Homo sapiens)) for entry CN(Cc1cnc(N2C3CCC2CN(c2cc(-c4ccccc4O)nnc2N)C3)nc1)CC1CCN(c2ccc3c(c2)n(C)c(=O)n3C2CCC(=O)NC2=O)CC1 (stereo not shown) [I-282] = > 90%

Field Dmax (system: SMARCA4 (Homo sapiens)) for entry CN(CCCc1cnc(N2C3CCC2CN(c2cc(-c4ccccc4O)nnc2N)C3)nc1)Cc1cccc2c1n(C)c(=O)n2C1CCC(=O)NC1=O (stereo not shown) [I-299] = > 90%

Field Dmax (system: SMARCA4 (Homo sapiens)) for entry Cc1ncsc1-c1ccc(CNC(=O)[C@@H]2C[C@@H](O)CN2C(=O)[C@@H](NC(=O)C2CN(Cc3cnc(N4C5CCC4CN(c4cc(-c6ccccc6O)nnc4N)C5)nc3)C2)C(C)(C)C)cc1 [I-385] = > 90%

Field Dmax (system: SMARCA4 (Homo sapiens)) for entry Cc1ncsc1-c1ccc(CNC(=O)[C@@H]2C[C@@H](O)CN2C(=O)[C@@H](NC(=O)C[C@H]2CC[C@H](N3CCC(n4cc(-c5cc(-c6ccccc6O)nnc5N)cn4)CC3)CC2)C(C)(C)C)cc1 [I-328] = > 90%

Field Dmax (system: SMARCA4 (Homo sapiens)) for entry Cc1ncsc1-c1ccc([C@H](C)NC(=O)[C@@H]2C[C@@H](O)CN2C(=O)[C@@H](NC(=O)[C@H]2CC[C@H](c3cnc(N4C5CCC4CN(c4cc(-c6ccccc6O)nnc4N)C5)nc3)CC2)C(C)(C)C)cc1 [I-438] = > 90%
